Test system: Calpain activity in SH-SY5Y cells
Assay: SH-SY5Y + AMC fluorescence assay (Suc-LLVY-AMC substrate)
Assay type: cell-based
Conditions: read-out: SH-SY5Y + AMC IC50
pIC50: −log10 of the molar value.
MEASURED ATTRIBUTE: pIC50

>>> print(df.to_string())
                                    compound  reported_result
 0  Cn1cc(C(=O)NC(Cc2ccccc2)C(=O)C(N)=O)c(-c2cccc3cnccc23)n1 (stereo not shown)           < 4.60
 1  Cc1cc(C(=O)NC(Cc2ccccc2)C(=O)C(N)=O)n(-c2cccc(COCc3ccccc3)c2)n1 (stereo not shown)     4.60 to 5.00
 2  Cc1cc(C)cc(C[C@H](NC(=O)c2cn(C)nc2-c2ccccc2)C(=O)C(N)=O)c1           < 4.60
 3  Cc1cc(C(=O)NC(Cc2ccccc2)C(=O)C(=O)NC2CC2)n(-c2ncccn2)n1 (stereo not shown)           > 5.00
 4  Cc1ccccc1-c1nsnc1C(=O)NC(Cc1ccccc1)C(=O)C(N)=O (stereo not shown)           > 5.00
 5  Cc1cncc(-c2nn(C(F)F)cc2C(=O)NC(Cc2ccccc2)C(=O)C(N)=O)c1 (stereo not shown)     4.60 to 5.00
 6  Cc1cc(C(=O)NC(C=O)Cc2ccccc2)n(-c2cccc(COCc3ccccc3)c2)n1 (stereo not shown)           < 4.60
 7  NC(=O)C(=O)C(Cc1ccccc1)NC(=O)c1cc(C(F)(F)F)nn1-c1ncccn1 (stereo not shown)           > 5.00
 8  Cc1cc(C(=O)NC(Cc2ccccc2)C(=O)C(N)=O)n(-c2ncccc2F)n1 (stereo not shown)           > 5.00
 9  Cc1cc(C(=O)N[C@@H](Cc2ccccc2)C(=O)CF)n(-c2ccccc2)n1           < 4.60
10  NC(=O)C(=O)C(Cc1ccc(F)cc1)NC(=O)c1nsnc1-c1ccccc1 (stereo not shown)           > 5.00
11  Cc1cc(C(=O)NC(Cc2ccccc2)C(=O)C(N)=O)n(-c2ccc(OC3CCOCC3)cc2)n1 (stereo not shown)           < 4.60
12  Cn1cc(C(=O)NC(Cc2ccccc2)C(=O)C(N)=O)c(N2CCN(C(=O)OCc3ccccc3)CC2)n1 (stereo not shown)           < 4.60
13  Cn1cc(C(=O)NC(C(=O)C(N)=O)c2ccc3ccccc3c2)c(-c2ccccc2F)n1 (stereo not shown)           > 5.00
14  COc1cccc(-c2nn(C(F)F)cc2C(=O)NC(Cc2ccccc2)C(=O)C(N)=O)c1 (stereo not shown)           > 5.00
15  Cn1cc(C(=O)NC(Cc2ccccc2)C(=O)C(N)=O)c(-c2cccc(F)c2F)n1 (stereo not shown)     4.60 to 5.00

###

Tested on: Calpain activity in SH-SY5Y cells
Experiment: SH-SY5Y + AMC fluorescence assay (Suc-LLVY-AMC substrate)
Format: cell-based
Conditions: read-out: SH-SY5Y + AMC IC50
Structures can show the parent of a compound that is named as a salt.
MEASURED ATTRIBUTE: IC50

                                   molecule  reported_result
0  CCN(CC)Cc1ccc(Oc2ccc(-n3nc(C)cc3C(=O)NC(Cc3ccccc3)C(=O)C(N)=O)cc2)cc1 (stereo not shown) [Compound 441, hydrochloride]          > 25 µM
1  Cn1cc(C(=O)NC(Cc2ccccc2)C(=O)C(N)=O)c(N2CCN(C(=O)OC(C)(C)C)CC2)n1 (stereo not shown) [Compound 603]          > 25 µM
2  C#Cc1nccc(-n2nc(C)cc2C(=O)NC(Cc2ccccc2)C(=O)C(N)=O)n1 (stereo not shown) [Compound 432]          < 10 µM
3  Cc1cc(C(=O)N[C@@H](Cc2ccccc2)C(=O)CF)n(-c2cnccn2)n1 [Compound 477]          > 25 µM

###

Recorded IC50, one value per entry.
Biological target: Human Calpain 9/NS1 (Homo sapiens, UniProt O14815)
Sequence (O14815 1-690): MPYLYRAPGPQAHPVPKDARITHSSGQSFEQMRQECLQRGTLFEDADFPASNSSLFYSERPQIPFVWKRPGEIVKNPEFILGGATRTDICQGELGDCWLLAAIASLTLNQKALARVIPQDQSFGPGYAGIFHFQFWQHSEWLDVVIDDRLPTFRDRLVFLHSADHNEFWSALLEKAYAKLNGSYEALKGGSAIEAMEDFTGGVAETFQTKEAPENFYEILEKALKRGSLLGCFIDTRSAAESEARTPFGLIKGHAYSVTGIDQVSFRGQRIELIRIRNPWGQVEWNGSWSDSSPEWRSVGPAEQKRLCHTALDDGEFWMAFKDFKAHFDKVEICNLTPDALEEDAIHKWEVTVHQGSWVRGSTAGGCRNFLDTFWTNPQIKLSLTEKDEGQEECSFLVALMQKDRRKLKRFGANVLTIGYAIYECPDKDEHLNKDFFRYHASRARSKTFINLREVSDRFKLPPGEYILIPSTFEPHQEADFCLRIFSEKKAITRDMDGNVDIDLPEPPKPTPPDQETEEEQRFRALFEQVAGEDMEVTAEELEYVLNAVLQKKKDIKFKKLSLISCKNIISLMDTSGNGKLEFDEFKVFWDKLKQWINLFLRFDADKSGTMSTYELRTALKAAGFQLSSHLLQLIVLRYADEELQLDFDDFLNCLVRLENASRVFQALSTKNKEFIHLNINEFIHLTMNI
Sequence (P04632 1-268 partner): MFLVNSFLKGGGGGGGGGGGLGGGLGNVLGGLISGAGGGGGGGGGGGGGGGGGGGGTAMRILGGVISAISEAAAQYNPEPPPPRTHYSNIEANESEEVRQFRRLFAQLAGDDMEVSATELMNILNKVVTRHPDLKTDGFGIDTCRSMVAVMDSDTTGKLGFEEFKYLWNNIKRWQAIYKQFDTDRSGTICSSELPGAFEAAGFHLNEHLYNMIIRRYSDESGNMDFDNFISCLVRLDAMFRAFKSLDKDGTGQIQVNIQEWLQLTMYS
Assay: Calpain inhibition continuous fluorescence (FRET) assay, Human Calpain 9/NS1
Assay type: biochemical
Conditions: read-out: Human Calpain 9/NS1 IC50
MEASURED ATTRIBUTE: IC50

>>> print(df.to_string())
                                    compound  reported_result
 0  Cn1cc(C(=O)NC(Cc2ccccc2)C(=O)C(N)=O)c(Cn2ncc3cnccc32)n1 (centres unmarked)          > 10 µM
 1  Cn1cc(C(=O)NC(Cc2ccccc2)C(=O)C(N)=O)c(C(=O)c2ccccc2)n1 (centres unmarked)       3 to 10 µM
 2  Cc1nc(-c2ccccc2)c(C(=O)N[C@@H](Cc2ccccc2)C(O)C(N)=O)o1 (some centres unmarked)          > 10 µM
 3  NC(=O)C(=O)[C@H](Cc1ccccc1)NC(=O)c1cc2ccccc2n1-c1ccccc1           < 3 µM
 4  Cc1nc(-c2cccc(F)c2F)c(C(=O)NC(Cc2ccccc2)C(=O)C(N)=O)o1 (centres unmarked)           < 3 µM
 5  Cn1cc(C(=O)NC(Cc2ccccc2)C(=O)C(N)=O)c(N2CCN(C(=O)OC(C)(C)C)CC2)n1 (centres unmarked)       3 to 10 µM
 6  NC(=O)C(=O)C(Cc1ccccc1)NC(=O)c1cn(C(F)F)nc1-c1ccc2ccccc2c1 (centres unmarked)           < 3 µM
 7  Cn1cc(C(=O)NC(Cc2ccccc2)C(=O)C(N)=O)c(C2CCOC2)n1 (centres unmarked)       3 to 10 µM
 8  NC(=O)C(=O)C(Cc1ccccc1)NC(=O)c1cn(C2CCC2)nc1-c1ccccc1 (centres unmarked)           < 3 µM
 9  Cc1cc(C)cc(C[C@H](NC(=O)c2cn(C)nc2-c2ccccc2)C(=O)C(N)=O)c1           < 3 µM
10  NC(=O)C(=O)C(Cc1ccccc1)NC(=O)c1conc1-c1ncccn1 (centres unmarked)       3 to 10 µM
11  Cc1ccccc1-c1nc(C(F)(F)F)oc1C(=O)NC(Cc1ccccc1)C(=O)C(N)=O (centres unmarked)           < 3 µM
12  COc1ccccc1-c1nn(C)cc1C(=O)NC(Cc1ccccc1)C(=O)C(N)=O (centres unmarked)           < 3 µM
13  CCn1cc(C(=O)NC(Cc2ccccc2)C(=O)C(N)=O)c(-c2ccccc2F)n1 (centres unmarked)           < 3 µM
14  Cl.Cn1cc(C(=O)NC(Cc2ccccc2)C(=O)C(N)=O)c(-c2cccc(F)c2)n1 (centres unmarked) [Compound 485, hydrochloride]           < 3 µM
15  Cn1cc(C(=O)N[C@@H](CC(C)(C)C)C(=O)C(N)=O)c(-c2ccccc2)n1           < 3 µM
16  COc1cccc(-c2nn(C)cc2C(=O)NC(Cc2ccccc2)C(=O)C(N)=O)n1 (centres unmarked)           < 3 µM
17  Cn1cc(C(=O)NC(Cc2ccccc2)C(=O)C(N)=O)c(C2CCCC2)n1 (centres unmarked)       3 to 10 µM
18  NC(=O)C(=O)[C@H](Cc1ccccc1)NC(=O)c1cc(C(F)(F)F)nn1-c1ccccc1           < 3 µM
19  Cc1cc(C(=O)NC(Cc2ccccc2)C(=O)C(N)=O)n(-c2ccnc(C3CC3)n2)n1 (centres unmarked)           < 3 µM
20  NC(=O)C(=O)C(Cc1ccccc1)NC(=O)c1cn(-c2ccc(F)cc2)nc1-c1ccccc1 (centres unmarked)           < 3 µM
21  Cn1cc(C(=O)NC(Cc2ccccc2)C(=O)C(N)=O)c(-c2ccccc2C(F)(F)F)n1 (centres unmarked)       3 to 10 µM
22  Cc1cc(C(=O)NC(Cc2ccccc2)C(O)C(N)=O)n(-c2ccnc(Cl)n2)n1 (centres unmarked)          > 10 µM
23  Cc1nc(-c2cccc3c2OCO3)c(C(=O)NC(Cc2ccccc2)C(=O)C(N)=O)o1 (centres unmarked)           < 3 µM
24  Cn1cc(C(=O)NC(Cc2ccccc2)C(=O)C(N)=O)c(-c2ccc3ncccc3c2)n1 (centres unmarked)           < 3 µM
25  Cn1cc(C(=O)N[C@H](C=O)Cc2ccccc2)c(-c2ccccc2)n1           < 3 µM
26  Cn1ncc(C(=O)NC(Cc2ccccc2)C(=O)C(N)=O)c1Cc1ccccc1 (centres unmarked)       3 to 10 µM
27  COc1cccc(-c2oncc2C(=O)NC(Cc2ccccc2)C(=O)C(N)=O)c1F (centres unmarked)           < 3 µM
28  Cn1cc(C(=O)NC(Cc2ccccc2)C(=O)C(N)=O)c(-c2ccc3c(c2)OCCCO3)n1 (centres unmarked)           < 3 µM
29  O=CC(Cc1ccccc1)NC(=O)c1cnoc1-c1ccccc1 (centres unmarked)           < 3 µM
30  Cc1cc(C(=O)NC(Cc2ccccc2)C(=O)C(N)=O)n(-c2ccncn2)n1 (centres unmarked)           < 3 µM
31  Cc1nc(-c2ccccc2)c(C(=O)N[C@@H](Cc2ccc(O)cc2)C(=O)C(N)=O)o1           < 3 µM
